Recorded values, source ChEMBL document CHEMBL4371036.

Molecular target: Kallikrein-7 (Homo sapiens, UniProt P49862)
Sequence (P49862 whole entry, the tested form may be a part): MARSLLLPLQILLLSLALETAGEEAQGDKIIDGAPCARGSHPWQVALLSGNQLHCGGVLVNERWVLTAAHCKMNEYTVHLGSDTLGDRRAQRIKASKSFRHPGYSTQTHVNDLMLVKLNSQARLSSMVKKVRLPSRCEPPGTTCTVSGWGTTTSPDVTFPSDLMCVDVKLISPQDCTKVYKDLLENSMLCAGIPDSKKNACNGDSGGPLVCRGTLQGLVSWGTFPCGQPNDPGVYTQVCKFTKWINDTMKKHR
Assay: Inhibition of thermolysin activated recombinant human C-terminal 10-His tagged KLK7 (E23 to H252 residues) using MOCAc-Arg-Pro-Lys-Pro-Val-Glu-Nva-Trp-Arg-Lys(Dnp)-NH2 as substrate preincubated for 10 mins followed by substrate addition and measured after 30 mins by fluorescence analysis
QUANTITY NAME: IC50 (µM)

Some compounds with known IC50 results, for comparison:
Data point: CC1=NC(c2cn(S(=O)(=O)c3cccc(Cl)c3)c3ccc(C)cc23)CN1 (stereo not given) ; IC50 = 30

Data point: CC1=NC(c2cn(Cc3ccc(Cl)cc3)c3ccccc23)CN1 (stereo not given) ; IC50 = 22

Data point: CC1=NC(c2cn(S(=O)(=O)c3ccccc3C)c3ccc(C)cc23)CN1 (stereo not given) ; IC50 = 1

a. CC1=NC(c2cn(S(=O)(=O)c3ccccc3Cl)c3ccc(C)cc23)CN1 (stereo not given)
b. CC1=NC(c2cn(S(=O)(=O)c3cccs3)c3ccc(C)cc23)CN1 (stereo not given)
Which of these two has the smaller recorded IC50: a or b ? Select an item and report its label.
a
(a: 1.2 µM, b: 11 µM)
